Quick reference for viability at 10 µM among some molecules
experiment: Cytotoxicity against mouse BV-2 cells assessed as cell viability at 10 uM by MTT assay relative to control
Assay type: toxicity, cell-based
run.parameters: read-out: Activity
Give the value, in units of %, as a plain number.

A selection of reference data follows.
{"columns": ["structure.smiles", "outcome.measure", "unit", "result.value"],
 "data": [
  ["COc1c2n(cc(C(=O)Nc3ccc(-c4cn(-c5cc(C(F)(F)F)ccc5C(F)(F)F)nn4)cc3)c1=O)C[C@@H]1OCC[C@@H](C)N1C2=O", "viability at 10 µM", "%", 109],
  ["C[C@@H]1CCO[C@H]2Cn3cc(C(=O)NCc4ccc(F)cc4F)c(=O)c(O)c3C(=O)N12", "viability at 10 µM", "%", 77.6]
]}

// field: viability at 10 µM; key: COc1c2n(cc(C(=O)Nc3cccc(-c4cn(-c5ccc(F)cc5)nn4)c3)c1=O)C[C@H]1OC[C@H](C)N1C2=O ; value = 68

// field: viability at 10 µM; key: CCc1ccccc1-n1cc(-c2cccc(NC(=O)c3cn4c(c(OC)c3=O)C(=O)N3[C@H](C)CCO[C@H]3C4)c2)nn1 ; value = 49.8

// field: viability at 10 µM; key: COc1c2n(cc(C(=O)Nc3cccc(-c4cn(-c5ccccc5)nn4)c3)c1=O)C[C@H]1OC[C@H](C)N1C2=O ; value = 65.6

// field: viability at 10 µM; key: COc1c2n(cc(C(=O)Nc3cccc(-c4cn(-c5ccccc5I)nn4)c3)c1=O)C[C@H]1OC[C@H](C)N1C2=O ; value = 48.7

// field: viability at 10 µM; key: COc1c2n(cc(C(=O)Nc3ccc(-c4cn(-c5ccc(C(F)(F)F)cc5)nn4)cc3)c1=O)C[C@@H]1OCC[C@@H](C)N1C2=O ; value = 45.2
